Molecular target: Integrin alpha-IIb/beta-3 (Homo sapiens, UniProt P05106+P08514)
Assay: Inhibition of thrombin-induced platelet aggregation at 50 uM
Type: functional
endpoint: inhibition (%)

Observe how each entry below is paired with its result.
- mol: "CCN(CC)CCCNC(=O)c1cnn(-c2nc(-c3cccc(C(F)(F)F)c3)c(C(=O)O)s2)c1C(F)(F)F"
  result number: 30
- mol: "CCN(CC)CCCCCCCNC(=O)c1cnn(-c2nc(-c3cccc(C(F)(F)F)c3)cs2)c1C(F)(F)F"
  result number: 35
- mol: "O=C(NCCCN1CCCC1=O)c1cnn(-c2nc(-c3cccc(C(F)(F)F)c3)cs2)c1C(F)(F)F"
  result number: 0

a = O=C(NCCCn1ccnc1)c1cnn(-c2nc(-c3cccc(C(F)(F)F)c3)cs2)c1C(F)(F)F
b = O=C(NCCCNc1ccccc1)c1cnn(-c2nc(-c3cccc(C(F)(F)F)c3)cs2)c1C(F)(F)F
Request: // compare: a vs b , metric inhibition, want the smaller Answer with the label corresponding to your selection.
Result: b
(b: 18%, a: 33%)

###

Target: Integrin alpha-IIb/beta-3 (Homo sapiens, UniProt P05106+P08514)
Test: Inhibition of [125I]fibrinogen binding to human Fibrinogen Receptor.
Sequence (P05106 27-788 limits assumed): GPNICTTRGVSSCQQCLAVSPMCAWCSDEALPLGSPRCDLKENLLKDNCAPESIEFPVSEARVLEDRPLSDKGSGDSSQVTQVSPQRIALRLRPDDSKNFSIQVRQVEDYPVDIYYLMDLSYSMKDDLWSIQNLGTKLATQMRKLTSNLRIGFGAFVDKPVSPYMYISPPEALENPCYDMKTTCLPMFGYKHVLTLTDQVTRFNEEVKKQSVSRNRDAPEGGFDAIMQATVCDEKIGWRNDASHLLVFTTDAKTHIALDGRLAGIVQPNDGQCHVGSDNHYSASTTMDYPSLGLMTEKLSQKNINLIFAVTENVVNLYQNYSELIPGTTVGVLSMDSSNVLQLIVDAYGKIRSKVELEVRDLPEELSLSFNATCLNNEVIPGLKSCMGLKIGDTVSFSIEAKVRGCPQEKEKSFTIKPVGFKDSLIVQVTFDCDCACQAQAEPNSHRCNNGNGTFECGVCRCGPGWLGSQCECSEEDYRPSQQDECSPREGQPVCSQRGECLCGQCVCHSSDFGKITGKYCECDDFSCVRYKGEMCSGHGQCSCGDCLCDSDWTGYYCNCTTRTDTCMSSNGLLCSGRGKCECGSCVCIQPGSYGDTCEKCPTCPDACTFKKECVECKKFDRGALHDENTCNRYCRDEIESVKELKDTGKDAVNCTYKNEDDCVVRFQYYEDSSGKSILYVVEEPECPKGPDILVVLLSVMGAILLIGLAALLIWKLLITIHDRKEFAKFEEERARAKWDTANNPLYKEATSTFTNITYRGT
Sequence (P08514 32-887 limits assumed): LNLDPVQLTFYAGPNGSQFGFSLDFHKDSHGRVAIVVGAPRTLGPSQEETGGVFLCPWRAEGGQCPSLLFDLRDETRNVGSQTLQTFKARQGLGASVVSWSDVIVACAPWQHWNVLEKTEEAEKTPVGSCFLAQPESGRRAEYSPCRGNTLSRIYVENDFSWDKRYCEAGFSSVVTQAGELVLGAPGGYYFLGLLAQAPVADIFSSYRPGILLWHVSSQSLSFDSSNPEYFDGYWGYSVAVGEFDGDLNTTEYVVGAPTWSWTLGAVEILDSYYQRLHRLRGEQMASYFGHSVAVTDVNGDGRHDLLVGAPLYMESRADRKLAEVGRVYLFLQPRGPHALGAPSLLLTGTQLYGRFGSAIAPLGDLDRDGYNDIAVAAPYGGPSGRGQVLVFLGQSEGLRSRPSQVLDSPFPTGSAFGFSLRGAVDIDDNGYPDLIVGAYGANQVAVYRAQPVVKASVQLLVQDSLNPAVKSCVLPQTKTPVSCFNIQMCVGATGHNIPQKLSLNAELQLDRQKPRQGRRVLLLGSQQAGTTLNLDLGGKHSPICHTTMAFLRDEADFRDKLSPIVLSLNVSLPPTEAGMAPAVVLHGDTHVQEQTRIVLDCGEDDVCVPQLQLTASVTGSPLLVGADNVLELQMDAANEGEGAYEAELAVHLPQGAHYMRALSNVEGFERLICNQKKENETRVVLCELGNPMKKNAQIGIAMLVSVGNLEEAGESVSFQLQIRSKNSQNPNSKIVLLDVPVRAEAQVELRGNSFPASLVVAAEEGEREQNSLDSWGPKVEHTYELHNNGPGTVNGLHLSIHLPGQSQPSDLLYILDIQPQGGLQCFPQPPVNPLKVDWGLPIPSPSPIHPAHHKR
Sequence (P08514 891-1039 limits assumed): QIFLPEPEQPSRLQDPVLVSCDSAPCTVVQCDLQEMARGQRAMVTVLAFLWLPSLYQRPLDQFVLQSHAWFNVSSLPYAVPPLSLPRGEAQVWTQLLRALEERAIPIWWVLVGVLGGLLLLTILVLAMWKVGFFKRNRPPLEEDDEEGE
pIC50: −log10 of the molar value.
endpoint: pIC50

- compound: "CCN(CC)CCCNC(=O)c1cnn(-c2nc(-c3ccc(C)cc3)cs2)c1C(F)(F)F"
  assay system: "Integrin alpha-IIb/beta-3 (Homo sapiens, UniProt P05106+P08514)"
  endpoint: "pIC50"
  result number: 4.15
- compound: "CCN(CC)CCCNC(=O)c1cnn(-c2nc(-c3ccc(C(F)(F)F)cc3)cs2)c1C(F)(F)F"
  assay system: "Integrin alpha-IIb/beta-3 (Homo sapiens, UniProt P05106+P08514)"
  endpoint: "pIC50"
  result number: 4.40
- compound: "NCCCNC(=O)c1cnn(-c2nc(-c3cccc(C(F)(F)F)c3)cs2)c1C(F)(F)F"
  assay system: "Integrin alpha-IIb/beta-3 (Homo sapiens, UniProt P05106+P08514)"
  endpoint: "pIC50"
  result number: 4.91
- compound: "NCCCCNC(=O)c1cnn(-c2nc(-c3cccc(C(F)(F)F)c3)cs2)c1C(F)(F)F"
  assay system: "Integrin alpha-IIb/beta-3 (Homo sapiens, UniProt P05106+P08514)"
  endpoint: "pIC50"
  result number: 4.74
- compound: "O=C(NCCCN1CCCCC1)c1cnn(-c2nc(-c3cccc(C(F)(F)F)c3)cs2)c1C(F)(F)F"
  assay system: "Integrin alpha-IIb/beta-3 (Homo sapiens, UniProt P05106+P08514)"
  endpoint: "pIC50"
  result number: 4.52

1 = COc1ccc(CCNC(=O)C(CC(=O)O)NC(=O)CCCCCCCN=C(N)N)cc1 (configuration not stated)
2 = CCN(CC)CCCNC(=O)c1cnn(-c2nc(-c3cccc(C)c3)cs2)c1C(F)(F)F
3 = CCN(CC)CCCNC(=O)c1cnn(-c2nc(-c3cccc(C(F)(F)F)c3)c(Br)s2)c1C(F)(F)F
4 = O=C(NCCCNC1CCCCC1)c1cnn(-c2nc(-c3cccc(C(F)(F)F)c3)cs2)c1C(F)(F)F
Request: Task for the reader: rank each entry by its pIC50, from the minimum upward. Give the order by naming the labels one after another as requested.
Result: 2, 4, 1, 3
